Tested on: Trichomonas vaginalis
Assay: Trichomonicidal activity against Trichomonas vaginalis JH31A#4 trophozite assessed as inhibition of parasite growth at 300 uM after 24 hrs by resazurin redox dye based fluorimetric microtiter method
Type: functional
Details: JH31A#4, 24 h
Assign inhibition at 300 µM to each entry below.
Give bare numbers, in %.

Past entries and their recorded results:
Compound | inhibition at 300 µM (%)
CCN(CC)CCCN1CC(=O)N(C)c2cc([N+](=O)[O-])ccc21.Cl | 100
Cn1c(=O)c(=O)n(CCCCCl)c2ccc([N+](=O)[O-])cc21 | 68.5
CN(C)CCN1CC(=O)Nc2cc([N+](=O)[O-])ccc21.Cl | 98.5
Cn1c(=O)c(=O)n(CCCCCBr)c2ccc([N+](=O)[O-])cc21 | 51.1
O=C1CN(CCCO)c2ccc([N+](=O)[O-])cc2N1 | 84

Now examine the next entry.
Short answer for Cc1ncc([N+](=O)[O-])n1CCO [METRONIDAZOLE] : inhibition at 300 µM was 100

All figures here come from ChEMBL document CHEMBL3576838.
